Source of measurements: the NIST ThermoML archive (doi:10.1016/j.jct.2006.10.016)

Conditions: 323.15 K; 101 kPa; Liquid
result.type: viscosity (mPa·s)

Sample answers from the record:
1) CC(C)O ... 1.041
2) C[S+](C)[O-] [dimethyl sulfoxide] ... 1.289

[a] CCCO
[b] CCO
[c] CO
Query: Ascending sort, viscosity. State the ranking by listing the labels in the requested order.
Response: c, b, a

----------
Conditions: 303.15 K; 101 kPa; Liquid
result.type: mass density (kg/m3)

1. CCCO ... 795.5
2. CO ... 781.3
3. CCO ... 783.4
4. C[S+](C)[O-] [dimethyl sulfoxide] ... 1090.7
5. CC(C)O ... 776.4
